Target: TBK-1 (Homo sapiens (Human), UniProt Q9UHD2)
Sequence (Q9UHD2 whole entry): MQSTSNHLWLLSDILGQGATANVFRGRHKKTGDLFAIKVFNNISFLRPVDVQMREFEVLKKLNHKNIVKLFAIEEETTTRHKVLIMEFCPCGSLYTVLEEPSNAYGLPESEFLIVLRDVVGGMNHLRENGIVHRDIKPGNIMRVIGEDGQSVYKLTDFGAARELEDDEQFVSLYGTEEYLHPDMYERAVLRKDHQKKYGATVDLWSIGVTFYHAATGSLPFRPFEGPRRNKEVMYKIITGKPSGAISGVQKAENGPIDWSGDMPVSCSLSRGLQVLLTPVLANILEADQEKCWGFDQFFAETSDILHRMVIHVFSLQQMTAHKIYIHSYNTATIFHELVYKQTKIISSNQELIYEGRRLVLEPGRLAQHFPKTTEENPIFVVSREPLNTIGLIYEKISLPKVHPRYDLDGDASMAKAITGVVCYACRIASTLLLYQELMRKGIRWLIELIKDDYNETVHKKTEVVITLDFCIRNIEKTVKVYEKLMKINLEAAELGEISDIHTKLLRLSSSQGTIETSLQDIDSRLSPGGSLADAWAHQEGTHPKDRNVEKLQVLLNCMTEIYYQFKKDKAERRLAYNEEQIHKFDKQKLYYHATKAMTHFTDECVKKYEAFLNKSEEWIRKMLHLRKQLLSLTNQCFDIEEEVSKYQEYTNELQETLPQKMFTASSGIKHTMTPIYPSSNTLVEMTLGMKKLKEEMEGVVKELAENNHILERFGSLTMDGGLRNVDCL
Assay: biochemical
Conditions: at the Km for ATP; read-out: Concentration of compounds required for ~ 50% inhibition, TBK-1
OBSERVABLE: log10(IC50) (log10 of the value in nM)
Annotation: log10 of IC50, nM basis.

>  <COMPOUND>
CC(=O)Nc1ccc(Nc2nccc(-c3ccc(N4CCCC4)c(C#N)c3)n2)cc1 [DMX-9]

>  <log10(IC50)>
0.48

$$$$
>  <COMPOUND>
Cn1cc(Nc2nccc(-c3ccc(N4CCCC4)c(C#N)c3)n2)cn1 [DMX-56]

>  <log10(IC50)>
0.48

$$$$
>  <COMPOUND>
N#Cc1cc(-c2ccnc(Nc3ccc(C(N)=O)cc3)n2)ccc1N1CCCC1 [DMX-8]

>  <log10(IC50)>
0.48

$$$$
>  <COMPOUND>
CN(C)CCNc1ccc(Nc2nccc(-c3ccc(N4CC[C@H](F)C4)c(C#N)c3)n2)cn1 [DMX-69]

>  <log10(IC50)>
0.60

$$$$
>  <COMPOUND>
N#Cc1cc(-c2ccnc(Nc3ccc(N4CCOCC4)nc3)n2)ccc1N1CCCC1 [DMX-16]

>  <log10(IC50)>
0.00

$$$$
>  <COMPOUND>
CC(=O)Nc1ccc(Nc2nccc(-c3ccc(N4CC(O)C4)c(C#N)c3)n2)cn1 [DMX-66]

>  <log10(IC50)>
1.38

$$$$

Task: Fill in log10(IC50) for record N#Cc1cc(-c2ccnc(Nc3ccc4c(c3)CC(=O)N4)n2)ccc1N1CCCC1 [DMX-14]
Output: 0.30

Task: Annotate the compound N#Cc1cc(-c2ccnc(Nc3cccc(C(N)=O)c3)n2)ccc1N1CCCC1 [DMX-1] with its measured log10(IC50).
Output: 0.60
